Conditions: logP, HPLC, reversed-phase C 18, 40° C., 0.1% aqueous formic acid and acetonitrile, gradient 10% to 95% acetonitrile
OBSERVABLE: chromatographic logP

compound_string=Clc1nccc(Oc2cnc3ccccc3c2)c1Br value=2.35
compound_string=Fc1cccc2cc(Nc3cccnc3Cl)cnc12 value=2.14
compound_string=Fc1ccc2nc(Oc3cccnc3Br)cnc2c1F value=2.96
compound_string=Cc1nc2c(F)c(F)ccc2cc1Oc1sccc1Br value=4.23
compound_string=Cc1nc2c(F)c(F)ccc2cc1Cc1sccc1[Si](C)(C)C value=5.25
compound_string=Clc1ncnc(Oc2cnc3ccccc3c2)c1Br value=3.09
compound_string=Cc1nc2ccccc2cc1Oc1cnccc1Br value=2.44
compound_string=Cc1nc2c(F)c(F)ccc2nc1Oc1cc(Cl)ncc1Br value=4.2

###

This listing pairs compounds with measured chromatographic logP.
Details: logP, HPLC, reversed-phase C 18, 40° C., 0.1% aqueous formic acid and acetonitrile, gradient 10% to 95% acetonitrile
OBSERVABLE: chromatographic logP

compound=COc1nccc(Oc2cc3ccc(F)c(F)c3nc2C)c1Br value=3.85
compound=C[Si](C)(C)c1c(Oc2cnc3ccccc3c2)ccnc1F value=4.08
compound=Cc1nc2c(F)c(F)ccc2nc1Oc1cncc(Cl)c1Br value=4.06
compound=Cc1nc2ccccc2cc1Oc1ccnc(F)c1 value=2.17
compound=Clc1nccc(Nc2cnc3ccccc3c2)c1Br value=2.35
compound="Fc1cc(Oc2cnc3ccccc3c2)ncn1 [VIIb.01, 3-[(6-fluoropyrimidin-4-yl)oxy]quinoline]" value=2.08
compound=Fc1ccc2nc(Oc3ccncc3Br)cnc2c1F value=1.81
compound=Cc1nc2c(F)c(F)ccc2cc1Nc1ccnc(C(F)(F)F)c1Br value=3.37
compound=Fc1nccc(Oc2cnc3c(F)cccc3c2)c1Br value=2.98
compound=C[Si](C)(Cc1ccccc1)c1c(Oc2cnc3ccccc3c2)ccnc1F value=4.78
compound="Fc1cc(Oc2cnc3ccccc3c2)ccn1 [VIIa.03, 3-[(2-fluoropyridin-4-yl)oxy]quinoline]" value=2.25
compound=Cc1nc2c(F)c(F)ccc2nc1Oc1cc(Cl)cnc1Br value=4.3
compound=Fc1nccc(Nc2cnc3ccccc3c2)c1Br value=2.25
compound=Cc1nc2c(F)c(F)ccc2cc1Oc1ccnc(C(F)(F)F)c1Br value=4.01
compound=Fc1nccc(Oc2cnc3ccccc3c2)c1Br value=2.96
compound="Clc1cc(Oc2cnc3ccccc3c2)ccn1 [VIIa.01, 3-[(2-chloropyridin-4-yl)oxy]quinoline]" value=2.47
compound=Cc1nc2c(F)c(F)ccc2cc1Nc1ncc(Cl)cc1Br value=4.36
compound=Cc1nc2c(F)c(F)ccc2nc1Oc1cccnc1Br value=3.26
compound=Cc1nc2ccccc2n1Cc1sccc1[Si](C)(C)C value=2.13
compound=Cc1nc2c(F)c(F)ccc2nc1Oc1ncc(Cl)cc1Br value=4.72
compound=Cc1nc2c(F)c(F)ccc2nc1Oc1cnccc1Br value=3.19
